Measured pEC50 accompanies every entry in the list below.
# testedSystem: Bcl-2-related protein A1 (Homo sapiens)
# assayName: Bfl1 and BclB peptide interaction inhibitors, dose response, biochemical, powder compounds, wildtype and mutant Bfl1, panel (AID 504598)
# conditionSet: Bfl1/BclB peptide binding displacement assay, Bfl1 wildtype, deteriorated Bfl1 protein
pEC50: −log10 of the molar value.
experimentalEndpoint: pEC50

> print(dat)
                                   compound  valueobserved
1  CNC(CC(=O)c1ccc([N+](=O)[O-])cc1)C(Cl)(Cl)Cl (stereo unspecified)           7.50
2  CC(=O)c1ccc(NC(=O)c2ccc3nc(-c4ccco4)c(-c4ccco4)nc3c2)cc1           5.67
3      CCN1C(=O)/C(=C\C=C2/C=CC=CN2CC)SC1=S           6.32
4  Cc1ccc(-c2cc(-c3ccc(F)cc3)c(C#N)c(N)n2)o1           5.82
5  Cc1cc(-c2cc(-c3ccc(Cl)cc3)nc(N)c2C#N)co1           5.97
6  CNC1CCC(Br)CC(C(=O)/C=C/c2cccc(OC)c2OC)C1=O (stereo unspecified)           4.74

====

# testedSystem: Bcl-2-related protein A1 (Homo sapiens)
# assayName: Bfl1 and BclB peptide interaction inhibitors, dose response, biochemical, powder compounds, wildtype and mutant Bfl1, panel (AID 504598)
# conditionSet: Bfl1/BclB peptide binding displacement assay, Bfl1 mutant, stronger effect = higher value
Activity calls are given as the source filed them. How the calls were made is not given here.
experimentalEndpoint: percent span

> print(dat)
                                    molecule  valueobserved
 1  CN1CCN(C2=C(Cl)C(=O)N(c3cccc(Cl)c3)C2=O)CC1       inactive
 2  CCOC(=O)CCS(=O)(=O)c1nc(-c2ccccc2)cc(C(F)(F)F)n1       inactive
 3  O=C1NC(=O)C2(Cc3c(nc4ccccn4c3=O)N3CCCCCC32)C(=O)N1Cc1ccccc1 (centres undefined)       inactive
 4           Oc1ccc(NCc2ccccc2OCc2ccccc2)cc1       inactive
 5  O=C1C(Cl)=C(N2CCN(c3ccccc3[N+](=O)[O-])CC2)C(=O)c2ccccc21       inactive
 6  COc1cccc(-c2cc(C(F)(F)F)nc(S(C)(=O)=O)n2)c1       inactive
 7   Cc1ccc(-c2cc(-c3ccc(C)o3)nc(N)c2C#N)cc1       inactive
 8  CN1CCN(C2=C(Cl)C(=O)N(c3ccc(Cl)c(Cl)c3)C2=O)CC1       inactive
 9  Cc1cc(-c2cc(-c3ccc(Cl)cc3)nc(N)c2C#N)co1       inactive
10  Cc1ccc(-c2cc(-c3ccc(F)cc3)c(C#N)c(N)n2)o1       inactive
11  CNC(CC(=O)c1ccc([N+](=O)[O-])cc1)C(Cl)(Cl)Cl (centres undefined)       inactive
12  CC(=O)c1ccc(NC(=O)c2ccc3nc(-c4ccco4)c(-c4ccco4)nc3c2)cc1       inactive
13  CC(C)c1nnc(NC(=O)CCS(=O)(=O)c2nc(-c3cccs3)cc(C(F)(F)F)n2)s1       inactive
14  CCOC(=O)CS(=O)(=O)c1nc(-c2ccccc2)cc(C(F)(F)F)n1       inactive

The reported numbers originate from PubChem BioAssay AID504598.
